target: human muscarinic M4 receptor (Homo sapiens, UniProt P08173); construct: expressed in transfected cells; test: Alphascreen Surefire phospho-ERK1/2 functional assay, M4; type: cell-based; conditions: CHO, read-out: % Emax cf. ACh, M4, CHO cells stably expressing human M4; relative to ACh
Sequence (P08173 whole entry): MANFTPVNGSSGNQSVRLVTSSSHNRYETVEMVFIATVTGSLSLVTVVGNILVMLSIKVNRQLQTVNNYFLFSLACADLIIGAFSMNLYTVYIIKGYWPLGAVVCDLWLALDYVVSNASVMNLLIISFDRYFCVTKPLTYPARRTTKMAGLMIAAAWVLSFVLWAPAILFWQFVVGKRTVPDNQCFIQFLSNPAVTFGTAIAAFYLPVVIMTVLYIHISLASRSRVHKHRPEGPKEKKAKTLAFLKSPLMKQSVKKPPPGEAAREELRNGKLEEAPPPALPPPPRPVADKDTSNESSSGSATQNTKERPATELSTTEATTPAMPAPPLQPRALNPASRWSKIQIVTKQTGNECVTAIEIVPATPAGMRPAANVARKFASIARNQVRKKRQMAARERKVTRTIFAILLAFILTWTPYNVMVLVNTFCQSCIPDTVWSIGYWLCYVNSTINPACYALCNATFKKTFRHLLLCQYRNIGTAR

{"columns": ["Compound", "Result units", "Emax"],
 "data": [
  ["CCOC(=O)N1CCC2(CC(N3CCC([C@@H]4CCCN4C(=O)N4CC(F)(F)C4)CC3)C2)C1 (single isomer, unassigned) [2-39 Isomer 2]", "%", 76],
  ["CCOC(=O)N1CCC2(CC(N3CCC(N4C(=O)OC[C@@H]4C)CC3)C2)C1 (single isomer, unassigned) [2-121 Isomer 2]", "%", 60],
  ["CCOC(=O)N1CCC2(CC(N3CCC(C4CCCN(C(C)C)C4=O)CC3)C2)C1 (single isomer, unassigned) [4-6 Isomer 2]", "%", 77],
  ["CCOC(=O)N1CCC2(CC(N3CCC(C4CCCN4C(=O)CNC)CC3)C2)C1 (single isomer, unassigned) [2-23 Isomer 2]", "%", 104],
  ["CCOC(=O)N1CCC2(CC(N3CCC(n4cnnn4)CC3)C2)C1 (single isomer, unassigned) [1-62 Isomer 2]", "%", 10],
  ["CCOC(=O)N1CCC2(CC(N3CCC(N4CCC[C@H]4C(F)(F)F)CC3)C2)C1 (single isomer, unassigned) [2-101 Isomer 2]", "%", 98],
  ["CCOC(=O)N1CCC2(CC(N3CCC(N4CCCCCC4C(=O)OC)CC3)C2)C1 (single isomer, unassigned) [5-2 Isomer 2]", "%", 96],
  ["CCOC(=O)N1CCC2(CC(N3CCC([C@@H]4CCCN4C(=S)CC)CC3)C2)C1 (single isomer, unassigned) [2-58 Isomer 2]", "%", 156],
  ["CCOC(=O)N1CCC2(CC(N3CCC(N4CCCC[C@H]4C(=O)NC)CC3)C2)C1 (single isomer, unassigned) [4-18 Isomer 2]", "%", 79],
  ["COC(=O)N1CCC2(CC(N3CCC(C4CCCNC4=O)CC3)C2)C1 (single isomer, unassigned) [4-2 Isomer 4]", "%", 42],
  ["[2H]C([2H])([2H])COC(=O)N1CCC2(CC(N3CCC(n4cccn4)CC3)C2)C1 (single isomer, unassigned) [1-69 Isomer 2]", "%", 104],
  ["CCOC(=O)N1CCC2(CC(N3CCC([C@@H]4CCCN4C(=O)NC4COC4)CC3)C2)C1 (single isomer, unassigned) [2-56 Isomer 2]", "%", 134],
  ["CCOC(=O)N1CCC2(CC(N3CCC(c4c(CC)cnn4C)CC3)C2)C1 (single isomer, unassigned) [1-60 Isomer 2]", "%", 88],
  ["CCOC(=O)N1CCC2(CC(N3CCC([C@@H]4CCCN4C(=O)OCC(F)(F)F)CC3)C2)C1 (single isomer, unassigned) [2-48 Isomer 2]", "%", 81],
  ["CCOC(=O)N1CCC2(CC(N3CCC(N4C(=O)CCC4(C)C)CC3)C2)C1 (single isomer, unassigned) [2-117 Isomer 2]", "%", 96],
  ["CCOC(=O)N1CCC2(CC(N3CCC([C@@H]4CCCN4C(=O)OCCNC)CC3)C2)C1 (single isomer, unassigned) [2-67 Isomer 2]", "%", 79],
  ["CCOC(=O)N1CCC2(CC(N3CCC(C4CCCN4C(=O)N(C)C)CC3)C2)C1 (single isomer, unassigned) [2-20 Isomer 2]", "%", 106],
  ["CCOC(=O)N1CCC2(CC(N3CCC([C@@H]4CCCN4C(=O)CC)CC3)C2)C1 (single isomer, unassigned) [2-7 Isomer 2]", "%", 100],
  ["CCOC(=O)N1CCC2(CC(N3CCC(n4ccnn4)CC3)C2)C1 (single isomer, unassigned) [1-35 Isomer 2]", "%", 61],
  ["CCOC(=O)N1CCC2(CC(N3CCC(N4CCSCC4)CC3)C2)C1 (single isomer, unassigned) [4-12 Isomer 2]", "%", 32],
  ["CCOC(=O)N1CCC2(CC(N3CCC(c4ccn(C)n4)CC3)C2)C1 (single isomer, unassigned) [1-22 Isomer 2]", "%", 20],
  ["CCOC(=O)N1CCC2(CC(N3CCC([C@@H]4CCCN4C(=O)OCCOC)CC3)C2)C1 (single isomer, unassigned) [2-50 Isomer 2]", "%", 73],
  ["COC(=O)N1CCC2(CC(N3CCC(c4c(C)cnn4C)CC3)C2)C1 (single isomer, unassigned) [1-57 Isomer 2]", "%", 69],
  ["CCOC(=O)N1CCC2(CC(N3CCC(c4nccn4CC(=O)O)CC3)C2)C1 (single isomer, unassigned) [1-53 Isomer 2]", "%", 80],
  ["CCOC(=O)N1CCC2(CC(N3CCC(N4CCC[C@@H]4CF)CC3)C2)C1 (single isomer, unassigned) [2-102 Isomer 2]", "%", 45],
  ["CCOC(=O)N1CCC2(CC(N3CCC(N4CCCC4c4nnn(C)n4)CC3)C2)C1 (single isomer, unassigned) [2-129 Isomer 2]", "%", 55]
]}

====

molecular target: human muscarinic M4 receptor (Homo sapiens); construct: expressed in transfected cells; test: Alphascreen Surefire phospho-ERK1/2 functional assay, M4; type: cell-based; conditions: CHO, read-out: % Emax cf. ACh, M4, CHO cells stably expressing human M4; relative to ACh
Values of Emax greater than or equal to 80% map to label 1; values below map to label 0.

{"columns": ["Compound", "Cat"],
 "data": [
  ["O=C(OCCF)N1CCC2(CC(N3CCC(c4ccc[nH]c4=O)CC3)C2)C1 (single isomer, unassigned) [3-3 Isomer 2]", "label 1"],
  ["CCOC(=O)N1CCC2(CC(N3CCC(N4CCCC[C@@H]4C(=O)NC)CC3)C2)C1 (single isomer, unassigned) [4-16 Isomer 2]", "label 1"],
  ["CCOC(=O)N1CCC2(CC(N3CCC([C@@H]4CCCN4C(=O)NC(C)C)CC3)C2)C1 (single isomer, unassigned) [2-25 Isomer 2]", "label 1"],
  ["CCOC(=O)N1CCC2(CC(N3CCC([C@@H]4CCCN4C(=O)NC4(C)CCC4)CC3)C2)C1 (single isomer, unassigned) [2-35 Isomer 2]", "label 1"],
  ["CCOC(=O)N1CCC2(CC(N3CCC([C@@H]4CCCN4C(=O)CO)CC3)C2)C1 (single isomer, unassigned) [2-52 Isomer 2]", "label 1"],
  ["CCOC(=O)N1CCC2(CC(N3CCC(n4ccc(C)n4)CC3)C2)C1 (single isomer, unassigned) [1-44 Isomer 2]", "label 1"],
  ["CCOC(=O)N1CCC2(CC(N3CCC(c4c(C)cnn4CC)CC3)C2)C1 (single isomer, unassigned) [1-59 Isomer 2]", "label 0"],
  ["CCOC(=O)N1CCC2(CC(N3CCC(c4nc(Cl)c(Cl)n4C)CC3)C2)C1 (single isomer, unassigned) [1-17 Isomer 2]", "label 1"],
  ["CCOC(=O)N1CCC2(CC(N3CCC(c4ncco4)CC3)C2)C1 (single isomer, unassigned) [1-23 Isomer 2]", "label 1"],
  ["CCOC(=O)N1CCC2(CC(N3CCC([C@@H]4CCCN4C(=O)NC4CC(F)(F)C4)CC3)C2)C1 (single isomer, unassigned) [2-38 Isomer 2]", "label 1"],
  ["CCOC(=O)N1CCC2(CC(N3CCC(C4CCCN4C(=O)NOC)CC3)C2)C1 (single isomer, unassigned) [2-24 Isomer 2]", "label 1"],
  ["CCC(=O)N1CCCC1C1CCN(C2CC3(CCN(C(=O)OC)C3)C2)CC1 (single isomer, unassigned) [2-5 Isomer 2]", "label 0"]
]}

====

Biological target: human muscarinic M1 receptor (Homo sapiens)
Sequence (P11229 1-460): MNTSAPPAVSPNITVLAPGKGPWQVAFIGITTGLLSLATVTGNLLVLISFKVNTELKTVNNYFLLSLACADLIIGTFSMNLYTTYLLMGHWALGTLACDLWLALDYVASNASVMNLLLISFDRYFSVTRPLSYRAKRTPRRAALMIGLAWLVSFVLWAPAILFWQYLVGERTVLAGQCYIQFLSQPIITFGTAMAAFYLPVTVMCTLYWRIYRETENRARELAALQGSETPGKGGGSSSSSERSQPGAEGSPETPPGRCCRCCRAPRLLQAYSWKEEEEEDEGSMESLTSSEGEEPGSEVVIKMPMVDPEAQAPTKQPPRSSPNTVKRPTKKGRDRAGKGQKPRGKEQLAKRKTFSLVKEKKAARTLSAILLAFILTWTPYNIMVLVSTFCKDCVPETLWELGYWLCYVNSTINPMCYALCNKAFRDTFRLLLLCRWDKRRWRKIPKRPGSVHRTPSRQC
Assay: Alphascreen Surefire phospho-ERK1/2 functional assay, M1
Assay type: cell-based
Settings: CHO cells stably expressing human M1; phospho-ERK1/2; * = variable results; read-out: pEC50 M1 (converted)
Quantity kind: EC50

{"columns": ["Molecule", "Val"],
 "data": [
  ["CCOC(=O)N1CCC2(CC(N3CCC([C@@H]4CCCN4C(=O)CC)CC3)C2)C1 (single isomer, unassigned) [2-7 Isomer 2]", "794 nM"],
  ["CCOC(=O)N1CCC2(CC(N3CCC(N4CCC(F)(F)C4)CC3)C2)C1 (single isomer, unassigned) [2-100 Isomer 2]", "> 20000 nM"],
  ["CCNC(=O)N1CCCC1C1CCN(C2CC3(CCN(C(=O)OCC)C3)C2)CC1 (single isomer, unassigned) [2-19 Isomer 2]", "631 nM"]
]}
